system: Calf thymus DNA; experiment: DNA Binding ΔTm, calf thymus
Classify as follows. Reported DNA Binding ΔTm Calf thymus greater than or equal to 4 °C: YES. Reported DNA Binding ΔTm Calf thymus below: NO.

{"molecule": "CCCCCCCNC(=N)c1ccc(N2CCN(c3ccc(C(=N)NCCCCCCC)cc3)CC2)cc1 [compound 5]", "category_label": "YES"}
{"molecule": "CCCCCCCCCCNC(=N)c1ccc(N2CCN(c3ccc(C(=N)NCCCCCCCCCC)cc3)CC2)cc1 [compound 18]", "category_label": "NO"}
{"molecule": "CCCCCCCCCCCCNC(=N)c1ccc(N2CCN(c3ccc(C(=N)NCCCCCCCCCCCC)cc3)CC2)cc1 [compound 15]", "category_label": "NO"}
{"molecule": "CCCCCCCCCNC(=N)c1ccc(N2CCN(c3ccc(C(=N)NCCCCCCCCC)cc3)CC2)cc1 [compound 14]", "category_label": "NO"}
{"molecule": "CCCCCNC(=N)c1ccc(N2CCN(c3ccc(C(=N)NCCCCC)cc3)CC2)cc1 [compound 2]", "category_label": "YES"}
{"molecule": "N=C(N)c1ccc(OCCCCCOc2ccc(C(=N)N)cc2)cc1 [Pentamidine, reference compound]", "category_label": "YES"}
{"molecule": "CCNC(=N)c1ccc(N2CCN(c3ccc(C(=N)NCC)cc3)CC2)cc1 [compound 16]", "category_label": "YES"}
{"molecule": "CCCCCCNC(=N)c1ccc(N2CCN(c3ccc(C(=N)NCCCCCC)cc3)CC2)cc1 [compound 3]", "category_label": "YES"}
{"molecule": "CCCCCCCCNC(=N)c1ccc(N2CCN(c3ccc(C(=N)NCCCCCCCC)cc3)CC2)cc1 [compound 11]", "category_label": "YES"}
